The reported numbers originate from ChEMBL document CHEMBL2346656.

System: Hepatitis B virus
Experiment: Antiviral activity against Hepatitis B virus infected in human HepG2.2.15 cells assessed as inhibition of HBsAg secretion after 12 days by ELISA
Assay type: functional, organism-based
Conditions: HepG2 2.2.15, 288 h
pIC50: −log10 of the molar value.
parameterMeasured: pIC50

Examples with their reported pIC50 follow.
Indicate its recorded pIC50; the molecule in question is C=CCc1ccc(O)c(-c2cc(C[C@@H](O)CO)ccc2O)c1 [MAGNOLIGNAN A]
< 3.00

Look up pIC50 of COc1cc([C@H]2Oc3c(OC)cc(/C=C/C(=O)O)cc3[C@@H]2CO)ccc1O [GLYCOSMISIC ACID] and report it.
< 3.00

More entries:
State its pIC50: `C=CCc1ccc(O[C@@H]2O[C@H](CO)[C@@H](O)[C@H](O)[C@H]2O)c(-c2cc(C[C@@H](O)CO)ccc2O)c1`
< 3.00
